Data origin: ChEMBL document CHEMBL1201862

Test system: NCI/ADR-RES
procedure.text: NCI tumour cell line growth inhibition, 48 h
Activity calls are given as the source filed them. Rule as the data show it: active = GI50 up to about 1.1 µM and inactive = higher.
Listed below: GI50 values for each entry.

compound: S=C(NCc1ccccc1)c1nc[nH]c1C(=S)NCc1ccccc1
GI50: 3.41 µM (inactive)
//
compound: CCCCCCCCCCCC/C=C\CC[C@@H](O)[C@H](O)CC[C@H](O)[C@@H]1CC[C@@H](CCCCCCCC2=C[C@H](C)OC2=O)O1 [GIGANTRIONENIN]
GI50: 1.24 µM (inactive)
//
compound: CCSc1nc(N)c2c(-c3ccccc3)c3c(nc2n1)CCC3
GI50: > 100 µM (inactive)
//
compound: C[C@@H]1CCC2C(C)(C)C(/C=C\C=O)C3(C)OC213 (some centres undefined)
GI50: 30 µM (inactive)
//
compound: CC(C)(C)[Si](C)(C)OC1/C(=C/C#N)C(n2ccc(=O)[nH]c2=O)OC1CO (centres undefined)
GI50: > 100 µM (inactive)
//
compound: C=C(C(=O)O)[C@@H]1C[C@@H](OC(C)=O)[C@]2(C)CC/C=C(\C)CCC[C@H](C)[C@H](O)[C@@H]1O2
GI50: 33.3 µM (inactive)
//
compound: COC(=O)c1cc(C)n2c1CS[C@@H]2c1ccccc1
GI50: 25.1 µM (inactive)
//
compound: CC(C)(C)OC(=O)NCCCCC(NC(=O)c1ccccc1)C(N)=O (centres undefined)
GI50: > 100 µM (inactive)
//
compound: COc1cc2c3c([nH]c2c(OC)c1OC)CCN(Cc1ccccc1)C3
GI50: 29.9 µM (inactive)

---

Test system: COLO 205
procedure.text: NCI tumour cell line growth inhibition, 48 h
Calls of active or inactive are those of the source. Rule as the data show it: active = GI50 up to about 1.1 µM and inactive = higher.
Outcome codes: true (1) = active, false (0) = inactive

compound: CC(=O)NC(CCCNC(=O)NCCCl)C(=O)NCc1ccccc1 (stereo not given)
assigned.category: false (0)
//
compound: Nc1nn2c(nc(N)c3c(N)n[nH]c32)c1/N=N\c1ccc(Br)cc1
assigned.category: false (0)
//
compound: CC(C)(C)c1ccc2c(c1)CNCCNCc1cc(C(C)(C)C)ccc1OCC1(CO2)COc2ccc(C(C)(C)C)cc2CNCCNCc2cc(C(C)(C)C)ccc2OC1
assigned.category: true (1)
//
compound: CCCCCCCCCCCCP(=O)(O)OCC(N)C(=O)O (stereo not given)
assigned.category: false (0)
//
compound: O=C(O)CC(O)(c1ccccc1C(=O)O)c1cccc2ccccc12 (stereo not given)
assigned.category: false (0)
//
compound: CC(C)CC(NC(=O)OC(C)(C)C)C(=O)Nc1ccc(Nc2nc(F)nc(-c3c4ccccc4c4n3CCS4)n2)cc1 (stereo not given)
assigned.category: false (0)
//
compound: CCOC(=O)c1nc2ccccc2nc1NCc1ccc(OC)c(OC)c1
assigned.category: false (0)
//
compound: CC(=O)c1c2c(cc3c1CC1(Cc4cc5c(cc4C1)CCCC5)C3)CCCC2
assigned.category: false (0)
//
compound: O=C(CSc1nc2ccc(I)cc2c(=O)n1Cc1ccccc1)NNC(=O)c1ccccc1
assigned.category: false (0)
//
compound: O=C1NC2c3c(I)sc(I)c3C(O)C2O1 (stereo not given)
assigned.category: false (0)

---

System: DLD-1
procedure.text: NCI tumour cell line growth inhibition, 48 h
The source made the active and inactive calls. Cut-off read from the data, not from the text of the source: active = GI50 up to about 1.1 µM and inactive = higher.

compound: CCCCCCCC/C=C1\CCC(CN(C)C)C1=O (stereo unspecified)
GI50: 2.16 µM (inactive)

compound: CCOC(=O)[C@H]1Nc2c(cccc2[N+](=O)[O-])[C@H]2OCC[C@@H]12
GI50: > 100 µM (inactive)

compound: CCOc1cccc2cccnc12
GI50: > 100 µM (inactive)

compound: CC1CCc2c(sc3ncnc(N/N=C/c4ccc(Cl)c(Cl)c4)c23)C1 (stereo unspecified)
GI50: 9.33 µM (inactive)

compound: COC(=O)C(=O)C(C(=O)OC)C(=O)C(=O)Nc1cc(Cl)c(C)cc1S(=O)(=O)O (stereo unspecified)
GI50: > 100 µM (inactive)

compound: COc1cc2ccnc3c(=C(SC)SC)c(=O)c(c1OC)c23
GI50: 13.9 µM (inactive)

---

System: TK-10
procedure.text: NCI tumour cell line growth inhibition, 48 h
The source made the active and inactive calls. Cut-off read from the data, not from the text of the source: active = GI50 up to about 1.1 µM and inactive = higher. Numbered stars: 1 amine (or outer) side, 2 acyl side, 3 side chain; on linkers, the order of the positions; unused ones are H or OH. Bridge positions count the residues as written; N and C are the ends. Non-standard residues stand in square brackets, D forms with d. Square brackets hold non-standard residues; d marks the D form. Residues, ends and D or L forms follow the SMILES beside them. Peptide text beside a SMILES is read from it. *: point of attachment. X58 = COc1c(N[*:1])cccc1C(=O)O[C@H](C(=O)[C@H](C)C(=O)[*:2])C(C)C; X57 = CC(C)C[C@H](C(=O)[*:2])C(C)C(=O)C1CCCN1[*:1]; Phe(4-NO2) = N[CH](Cc1ccc([N+](=O)[O-])cc1)C(=O)O; NMeY = CN[C@@H](Cc1ccc(O)cc1)C(=O)O; Boc = CC(C)(C)OC(=O)*; Lac = C[C@H](O)C(=O)O

molecule: CC(=O)CC(=O)Nc1ccccc1[N+](=O)[O-]
GI50: > 100 µM (inactive)
--
molecule: FC(F)(F)c1ccc2c(c1)nc(Cc1ccccc1)n2C[C@@H]1CCCN2CCCCC12 (stereo partly specified)
GI50: 17.1 µM (inactive)
--
molecule: CCN1CCCC(Nc2cc(C)nc(NC(=N)Nc3ccc(Cl)c(Cl)c3)n2)C1 (stereo unspecified)
GI50: 1.69 µM (inactive)
--
molecule: CN(c1ccccc1)C1C(=O)N(c2ccccc2)C1/C=C/c1ccccc1 (stereo unspecified)
GI50: > 100 µM (inactive)
--
molecule: C/C=C1\CN2CCC34c5ccccc5N(C)C35OCC4(C(=O)OC)C1CC25 (stereo unspecified)
GI50: > 100 µM (inactive)
--
molecule: CCOC(=O)C1Cc2[nH]c3ccccc3c2C(C)C1C (stereo unspecified)
GI50: 30 µM (inactive)
--
molecule: CCOC(=O)C(Cc1cn(S(=O)(=O)c2ccccc2)c2ccccc12)(NC(C)=O)C(=O)OCC
GI50: 65.5 µM (inactive)
--
molecule: O=C(COc1ccccc1Cl)N1N=C(c2ccc(Cl)cc2)CC1(O)c1ccccc1 (stereo unspecified)
GI50: > 100 µM (inactive)
--
molecule: N=C(N)Nc1ccc(CC(N)NCC(=O)O)cc1 (stereo unspecified)
GI50: > 25 µM (inactive)
--
molecule: COc1ccc(C[C@H]2C(=O)O[C@H](C)[C@H](NC(=O)[C@@H](CC(C)C)C(C)C(=O)C3CCCN3C(=O)[C@H](C)O)C(=O)Nc3cccc(c3OC)C(=O)O[C@@H](C(C)C)C(=O)[C@H](C)C(=O)N[C@@H](CC(C)C)C(=O)N3CCC[C@H]3C(=O)N2C)cc1 (stereo partly specified) (H-[Lac][X57]T[X58]LP[NMeY](Me); ester 3-C)
GI50: > 12.5 µM (inactive)
--
molecule: O=C(CNC(=O)OCc1ccccc1)NCCCCC(NC(=O)OCc1ccccc1)C(=O)O (stereo unspecified)
GI50: > 100 µM (inactive)
--
molecule: Nc1nc(-c2ccco2)cc(-c2ccc(CO)o2)n1
GI50: > 100 µM (inactive)
--
molecule: CC(C)=C[C@H]1CCC2(OCCO2)[C@]1(C)COCc1ccccc1
GI50: 40.7 µM (inactive)
--
molecule: C/C(=N\Nc1nc2ccccc2n1C)c1ccncn1
GI50: 1.52 µM (inactive)
--
molecule: COC(=O)CCC(NC(=O)OC(C)(C)C)C(=O)NC(Cc1ccc([N+](=O)[O-])cc1)C(=O)NC(CCC(=O)OC)C(=O)OC (stereo unspecified) (Boc-Glu(OMe)-[Phe(4-NO2)]-Glu(OMe)-OMe; configuration not given here)
GI50: > 100 µM (inactive)
--
molecule: Cn1c(=O)[nH]c2c(c1=O)C(=O)CN2
GI50: > 100 µM (inactive)

---

Tested on: CAKI-1
procedure.text: NCI tumour cell line growth inhibition, 48 h
Calls of active or inactive are those of the source. No stated cut-off is given here; in the data, active = GI50 up to about 1.1 µM and inactive = higher.
Listed below: GI50 values for each entry.
property.name: GI50

compound: CCOC(=O)C1=CN/C(=C(/C)C(=O)OC)SC1C(=O)OCC (centres undefined)
measured.on: CAKI-1
result: > 100 µM (inactive)

compound: CCOC(=O)CNC(=O)c1nc[nH]c1/N=N/N(C)C
measured.on: CAKI-1
result: > 100 µM (inactive)

compound: NC(S)=Nc1cc(Cl)ccc1Cl
measured.on: CAKI-1
result: > 100 µM (inactive)

compound: N#Cc1nc(Cc2cccs2)oc1N
measured.on: CAKI-1
result: > 100 µM (inactive)

compound: N#Cc1c2c([nH]c(=O)c1C#N)CCCC2
measured.on: CAKI-1
result: > 100 µM (inactive)

compound: CC(=O)NCCc1c[nH]c2ccc(Cl)cc12
measured.on: CAKI-1
result: > 100 µM (inactive)

compound: O=C(Nc1nc(C23CC4CC(CC(C4)C2)C3)cs1)c1cc2cc(Cl)ccc2oc1=O
measured.on: CAKI-1
result: > 100 µM (inactive)

compound: CSC1CC2C(CC1(C)SC)C2(C)C (centres undefined)
measured.on: CAKI-1
result: > 100 µM (inactive)

compound: O=C1c2ccccc2C(=O)c2[nH]cnc21
measured.on: CAKI-1
result: > 100 µM (inactive)

compound: O=C(Cc1ccccc1F)NC1=C(Cl)C(=O)c2ccccc2C1=O
measured.on: CAKI-1
result: 2.79 µM (inactive)

compound: COc1cc([C@H]2CC(=O)C[C@H](c3cc(OC)c(OC)c(OC)c3)C23C(=O)c2ccccc2C3=O)cc(OC)c1OC
measured.on: CAKI-1
result: > 100 µM (inactive)

compound: CCCCCCCCCCCCCCCCc1c(C(=O)OC)[nH]c(=S)[nH]c1=O
measured.on: CAKI-1
result: > 50 µM (inactive)

compound: O=C1NCCS(=O)(=O)N2CCC[C@@H]12
measured.on: CAKI-1
result: > 100 µM (inactive)

compound: CCN(CC)CCNc1c(OC)cc(C)c2sc3ccccc3c(=O)c12
measured.on: CAKI-1
result: 7.96 µM (inactive)

compound: C[C@@H]1C[C@@H]2C(=O)N(c3ccccc3)C(=O)[C@@H]2c2[nH]c3ccc(Br)cc3c21
measured.on: CAKI-1
result: 27.4 µM (inactive)

compound: C/C=C1\CN2CCC34c5ccccc5N(C)C35OCC4(C(=O)OC)C1CC25 (centres undefined)
measured.on: CAKI-1
result: 99.3 µM (inactive)

compound: O=C1CCCC/C1=C\c1ccc(Br)cc1
measured.on: CAKI-1
result: 17 µM (inactive)

compound: COc1ccc(/C=C2\CCC(C)c3c2nc(N)c(C#N)c3-c2ccc(OC)c(OC)c2)cc1OC (centres undefined)
measured.on: CAKI-1
result: 58.5 µM (inactive)

compound: O=[N+]([O-])c1ccc2c(c1)nc(Cc1ccccc1)n2C[C@@H]1CCCN2CCCCC12 (some centres undefined)
measured.on: CAKI-1
result: 28.3 µM (inactive)

compound: COc1cc2c(cc1OC)C1[C@@H](c3ccccc3)OCN1CC2 (some centres undefined)
measured.on: CAKI-1
result: > 100 µM (inactive)

compound: N#CC(C(=O)CCC(=O)Nc1ccc(Cl)cc1)c1ccccc1Cl (centres undefined)
measured.on: CAKI-1
result: 89.3 µM (inactive)

compound: Nc1n2nc(-c3ccccc3)sc2n[n+]1CC(=O)c1ccccc1
measured.on: CAKI-1
result: 12.3 µM (inactive)

compound: CCOC(=O)Oc1cc2c(c(OC)c1OC)-c1ccc(OC)c(=O)cc1C(NC(C)=O)CC2 (centres undefined)
measured.on: CAKI-1
result: 0.239 µM (active)

compound: CN(c1ccccc1)C1C(=O)N(c2ccccc2)C1/C=C/c1ccccc1 (centres undefined)
measured.on: CAKI-1
result: > 100 µM (inactive)

compound: N=C(/C=C/c1ccc(-c2cn3cc(/C=C/C(=N)N4CCOCC4)ccc3n2)cc1)N1CCOCC1
measured.on: CAKI-1
result: > 100 µM (inactive)

compound: COc1cc(/C=C2\NC(=S)C3Cc4c(OC)c(C)c(OC)c(OC)c4C2N3C)c(OC)c(C)c1OC (centres undefined)
measured.on: CAKI-1
result: 58.1 µM (inactive)

compound: COc1ccc2nc(C(=O)c3ccccc3)c(C)cc2c1
measured.on: CAKI-1
result: 7.91 µM (inactive)

compound: C[C@]12CC[C@H](O)CC1=CC[C@@H]1C2CC[C@]2(C)Nc3c(cnn3-c3ccc(F)cc3)CC12 (some centres undefined)
measured.on: CAKI-1
result: 64.6 µM (inactive)

compound: Cc1nc(C(N)=S)sc1C(=O)CC(=O)C(=O)Nc1ccc(Br)cc1
measured.on: CAKI-1
result: > 100 µM (inactive)
